// Post-emerge Herbicidal Activity, phytotoxicity rating AMBEL lookup, one value per entry
- Tested on: common ragweed (Ambrosia artemisizfolia L., AMBEL)
- experiment.description: Post-emerge test, greenhouse herbicide activity screening
- Assay type: in vivo
- measurement.context: Rate 63 g ai/ha; rating scale 0-100 (0 no damage, 100 complete death); 14 days after application
assay.readout: Post-emerge Herbicidal Activity, phytotoxicity rating AMBEL

INSERT INTO assay_data (compound, result) VALUES
  ('COc1c(Cl)cc(F)c(-n2c(=O)cc(C(F)(F)F)n(C)c2=O)c1CC(C)(Cl)C(=O)OCCSC (stereo not drawn)', 80),
  ('COc1c(Cl)cc(F)c(-n2c(=O)cc(C(F)(F)F)n(C)c2=O)c1CC(Cl)C(=O)OCC(F)(F)C(F)(F)C(F)(F)F (single isomer, unassigned) [14-24]', 50),
  ('COc1c(Cl)cc(F)c(-n2c(=O)cc(C(F)(F)F)n(C)c2=O)c1CC(C)(Cl)C(=O)OCC(F)(F)C(F)F (stereo not drawn)', 100),
  ('COCCOC(=O)C(Cl)Cc1c(OC)c(Cl)cc(F)c1-n1c(=O)cc(C(F)(F)F)n(C)c1=O (stereo not drawn)', 100),
  ('COc1c(Cl)cc(F)c(-n2c(=O)cc(C(F)(F)F)n(C)c2=O)c1CC(C)(Cl)C(=O)OCC1CCCO1 (stereo not drawn)', 100),
  ('CCCOC(=O)C(Cl)Cc1c(OC)c(Cl)cc(F)c1-n1c(=O)cc(C(F)(F)F)n(C)c1=O (single isomer, unassigned) [14-7]', 50),
  ('COc1c(Cl)cc(F)c(-n2c(=O)cc(C(F)(F)F)n(C)c2=O)c1CC(Cl)C(=O)OCC(F)(F)C(F)F (stereo not drawn)', 100),
  ('CCCCOC(=O)C(Cl)Cc1c(OC)c(Cl)cc(F)c1-n1c(=O)cc(C(F)(F)F)n(C)c1=O (single isomer, unassigned) [14-8]', 10),
  ('COc1c(Cl)cc(F)c(-n2c(=O)cc(C(F)(F)F)n(C)c2=O)c1CC(Cl)C(=O)OC(C)(C)C (stereo not drawn)', 0);

meta.source: patent US6355799B1
